Cited source: patent US20150104459A1

- tested on: hemagglutinin (HA) of live influenza A/Solomon Islands/3/06 (H1N1) virus (influenza A virus A/Solomon …)
- run description: cell-based or functional assay
// boundary case: % Neutralization equal to 90% maps to 0.0; strictly smaller maps to 1.0

binder | class assignment
TCN-546 (5089_L08) (antibody, V domains shown) VH: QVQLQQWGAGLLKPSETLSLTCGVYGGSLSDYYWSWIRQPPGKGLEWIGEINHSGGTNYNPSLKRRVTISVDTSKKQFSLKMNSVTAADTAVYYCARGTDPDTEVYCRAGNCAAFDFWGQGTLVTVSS VL: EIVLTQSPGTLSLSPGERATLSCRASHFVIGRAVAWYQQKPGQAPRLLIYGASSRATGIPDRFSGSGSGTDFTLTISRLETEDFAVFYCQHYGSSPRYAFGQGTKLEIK | 0.0
TCN-542 (5079_A16) (antibody, V domains shown) VH: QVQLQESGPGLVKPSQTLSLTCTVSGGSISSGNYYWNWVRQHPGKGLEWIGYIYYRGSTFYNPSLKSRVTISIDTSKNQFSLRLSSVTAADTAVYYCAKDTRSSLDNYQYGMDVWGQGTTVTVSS VL: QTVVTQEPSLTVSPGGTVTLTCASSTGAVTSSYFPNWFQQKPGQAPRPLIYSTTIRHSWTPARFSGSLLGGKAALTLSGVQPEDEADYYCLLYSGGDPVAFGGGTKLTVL | 0.0

Then this binder:
[Q] For TCN-553 (5261_C18) (antibody, V domains shown) VH: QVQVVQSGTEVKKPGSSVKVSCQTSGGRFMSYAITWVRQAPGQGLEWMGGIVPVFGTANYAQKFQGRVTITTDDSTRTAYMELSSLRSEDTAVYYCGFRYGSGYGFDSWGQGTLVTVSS VL: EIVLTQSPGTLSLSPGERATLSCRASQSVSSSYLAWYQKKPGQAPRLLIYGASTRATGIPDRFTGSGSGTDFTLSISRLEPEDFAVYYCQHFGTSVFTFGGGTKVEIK , is the recorded % Neutralization below the cut-off of 90%?
[A] 1.0
